# credit: ChEMBL document CHEMBL5247614

Biological target: Aryl hydrocarbon receptor (Homo sapiens)
Sequence (P35869 whole entry): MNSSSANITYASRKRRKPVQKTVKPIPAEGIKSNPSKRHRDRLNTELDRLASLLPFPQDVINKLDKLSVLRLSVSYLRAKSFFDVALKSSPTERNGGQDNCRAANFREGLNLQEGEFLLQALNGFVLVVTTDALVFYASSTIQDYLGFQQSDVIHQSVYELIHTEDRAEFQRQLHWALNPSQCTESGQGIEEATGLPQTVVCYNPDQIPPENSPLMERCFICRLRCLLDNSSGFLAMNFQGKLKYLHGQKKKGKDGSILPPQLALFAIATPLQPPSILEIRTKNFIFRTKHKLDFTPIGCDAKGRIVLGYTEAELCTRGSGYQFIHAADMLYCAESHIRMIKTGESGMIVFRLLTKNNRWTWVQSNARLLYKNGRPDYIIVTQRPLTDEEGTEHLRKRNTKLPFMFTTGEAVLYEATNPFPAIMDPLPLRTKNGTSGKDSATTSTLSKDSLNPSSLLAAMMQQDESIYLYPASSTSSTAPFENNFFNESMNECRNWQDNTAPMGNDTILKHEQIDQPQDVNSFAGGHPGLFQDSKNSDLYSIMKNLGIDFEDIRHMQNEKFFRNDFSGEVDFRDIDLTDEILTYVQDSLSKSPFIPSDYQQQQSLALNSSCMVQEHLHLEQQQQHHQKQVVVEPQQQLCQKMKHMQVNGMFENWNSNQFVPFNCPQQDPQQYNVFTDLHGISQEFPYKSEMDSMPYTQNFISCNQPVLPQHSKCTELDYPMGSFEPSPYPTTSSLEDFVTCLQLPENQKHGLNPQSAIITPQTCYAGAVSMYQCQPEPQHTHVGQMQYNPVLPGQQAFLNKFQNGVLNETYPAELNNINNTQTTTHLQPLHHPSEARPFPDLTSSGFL
Test: Modulator activity at AhR (unknown origin)

Smiles repr	Assayed system	EC50 / µM
c1ccc2c(Cc3c[nH]c4ccccc34)c[nH]c2c1	Aryl hydrocarbon receptor (Homo sapiens)	78

----------
system: CYP1A1; test: Upregulation of CYP1A1 gene expression in human MDA-MB-468 cells transfected with XRE plasmid containing AhR responsive luciferase construct and renilla luciferase assessed as fold change in gene expression at 1 uM incubated for 24 hrs by dual-glo luciferase assay relative to control; type: ADME, cell-based; conditions: read-out: FC

Smiles repr	fold induction at 24 h, 1 µM
Nc1ccccc1N1C(=O)c2cccc3cccc(c23)C1=O	250

----------
biological target: Aryl hydrocarbon receptor (Homo sapiens); assay: Agonist activity at AhR (unknown origin)
pEC50: −log10 of the molar value.

Smiles repr	Assayed system	pEC50
O=c1c(Cc2c[nH]c3ccccc23)nccc2c1[nH]c1ccccc12	Aryl hydrocarbon receptor (Homo sapiens)	7.92
c1ccc2c(c1)Nc1nc3ccccc3c3ccnc-2c13	Aryl hydrocarbon receptor (Homo sapiens)	11.00

----------
biological target: Aryl hydrocarbon receptor (Homo sapiens, UniProt P35869); test: Antagonist activity at AhR (unknown origin)

Compound	Result units	Inequality symbol	IC50
CC(C)c1cnn2c(N[C@@H]3CCc4[nH]c5ccccc5c4C3)nc(-c3cncc(F)c3)nc12	µM	<	0.5
Cc1[nH]c2c(C)cccc2c1C	µM	=	12
O=C(NCC(O)C(F)(F)F)c1cc(-c2ccc(OC(F)(F)F)cc2)nn(-c2cccnc2)c1=O (centres undefined)	µM	=	0.0822
Cc1[nH]c2ccccc2c1C	µM	=	11

----------
Biological target: Aryl hydrocarbon receptor (Homo sapiens, UniProt P35869)
Sequence (P35869 whole entry): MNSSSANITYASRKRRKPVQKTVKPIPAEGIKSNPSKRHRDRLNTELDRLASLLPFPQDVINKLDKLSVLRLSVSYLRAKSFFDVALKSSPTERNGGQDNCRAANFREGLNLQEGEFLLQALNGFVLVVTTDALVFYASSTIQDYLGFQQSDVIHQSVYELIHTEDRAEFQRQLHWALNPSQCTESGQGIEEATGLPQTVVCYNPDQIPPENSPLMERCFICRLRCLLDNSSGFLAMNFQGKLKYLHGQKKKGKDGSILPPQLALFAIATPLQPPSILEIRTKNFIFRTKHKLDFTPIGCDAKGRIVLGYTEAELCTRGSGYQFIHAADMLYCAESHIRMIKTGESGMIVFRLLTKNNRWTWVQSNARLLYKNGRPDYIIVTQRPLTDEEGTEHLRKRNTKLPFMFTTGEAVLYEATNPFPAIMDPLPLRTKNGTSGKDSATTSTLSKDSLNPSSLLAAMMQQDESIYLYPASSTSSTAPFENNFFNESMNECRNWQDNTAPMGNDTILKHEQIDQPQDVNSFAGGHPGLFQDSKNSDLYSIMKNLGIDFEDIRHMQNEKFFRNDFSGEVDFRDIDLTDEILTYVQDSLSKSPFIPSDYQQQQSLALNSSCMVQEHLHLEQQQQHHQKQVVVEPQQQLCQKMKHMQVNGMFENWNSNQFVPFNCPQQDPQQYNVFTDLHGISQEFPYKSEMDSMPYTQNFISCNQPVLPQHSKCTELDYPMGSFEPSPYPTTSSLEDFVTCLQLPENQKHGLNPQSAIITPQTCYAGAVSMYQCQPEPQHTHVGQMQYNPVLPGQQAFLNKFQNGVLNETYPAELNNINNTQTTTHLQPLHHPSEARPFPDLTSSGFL
Test: Antagonist activity at AhR (unknown origin) expressed in human U87 cells assessed as inhibition of kynurenic acid-induced transactivation by Renilla/Firefly based dual-glo luciferase assay
Format: cell-based

Compound	Assayed system	Result units	IC50
CC(CO)NC(=O)c1cc(-c2ccc(Cl)cc2)nn(-c2cccc(F)c2)c1=O (stereo unspecified)	Aryl hydrocarbon receptor (Homo sapiens, UniProt P35869)	µM	0.0399

----------
target: Aryl hydrocarbon receptor (Rattus norvegicus); experiment: Inhibition of TCDD binding to rat liver cytosol AhR; type: subcellular
Sequence (P41738 whole entry): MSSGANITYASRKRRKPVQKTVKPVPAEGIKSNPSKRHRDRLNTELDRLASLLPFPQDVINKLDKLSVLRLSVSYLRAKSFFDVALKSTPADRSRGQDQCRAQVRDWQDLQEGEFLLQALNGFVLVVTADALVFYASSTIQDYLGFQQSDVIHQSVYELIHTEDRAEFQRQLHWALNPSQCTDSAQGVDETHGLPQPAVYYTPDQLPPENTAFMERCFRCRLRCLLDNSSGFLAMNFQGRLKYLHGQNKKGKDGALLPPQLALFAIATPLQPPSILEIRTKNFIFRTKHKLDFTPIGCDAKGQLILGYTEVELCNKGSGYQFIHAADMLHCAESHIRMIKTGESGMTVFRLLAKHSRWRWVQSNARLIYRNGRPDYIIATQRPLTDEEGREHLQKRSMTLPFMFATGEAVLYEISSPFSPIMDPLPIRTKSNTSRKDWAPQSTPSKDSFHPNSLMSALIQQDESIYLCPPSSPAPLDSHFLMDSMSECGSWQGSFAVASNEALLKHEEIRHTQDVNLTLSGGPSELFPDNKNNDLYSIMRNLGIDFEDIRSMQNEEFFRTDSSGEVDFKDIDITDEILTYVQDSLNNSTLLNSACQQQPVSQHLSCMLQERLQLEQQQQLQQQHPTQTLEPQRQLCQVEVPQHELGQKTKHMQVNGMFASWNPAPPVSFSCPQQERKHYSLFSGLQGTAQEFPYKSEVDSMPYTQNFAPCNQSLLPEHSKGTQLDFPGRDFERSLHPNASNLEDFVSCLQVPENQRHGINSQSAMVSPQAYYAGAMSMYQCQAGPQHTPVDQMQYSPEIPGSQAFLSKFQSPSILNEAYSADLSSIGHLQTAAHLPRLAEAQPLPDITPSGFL
pIC50: −log10 of the molar value.

Smiles repr	pIC50
COc1ccc(-c2coc3ccccc3c2=O)cc1N	5.40

----------
molecular target: Aryl hydrocarbon receptor (Homo sapiens); experiment: Antagonist activity at AhR (unknown origin) assessed as inhibition of TCDD-induced luciferase activity

Smiles repr	Assayed system	IC50
Cc1ccccc1/N=N/c1ccc(NC(=O)c2ccnn2C)c(C)c1	Aryl hydrocarbon receptor (Homo sapiens)	30 nM
